Data origin, for the record: PubChem BioAssay (NCI)

test.summary: NCI Yeast Anticancer Drug Screen. Data for the mlh1 rad18 strain (AID 175)
run.parameters: S. cerevisiae mlh1 rad18 strain growth inhibition; at 50.0 µM; active compounds read high
This is part of a sample that, as a whole, favours compounds with a hit. Of some 79,000 tested, about 15% had one in any assay.
measure.name: growth inhibition (%)
Answer with a number only, understood to be in %.

Recorded results for 4 compounds are shown here.
>  <compound>
NNC(=O)c1c[nH]c2ccccc2c1=O

>  <growth inhibition (%)>
5.4

$$$$
>  <compound>
NC1=NN(c2ccccc2)C(=O)C1/C(=N\NC(=O)c1cc2ccccc2cc1O)C(=O)Nc1cccc(C(F)(F)F)c1 (stereo unspecified)

>  <growth inhibition (%)>
31.4

$$$$
>  <compound>
CCOC(=O)CCc1c(C)c2c(O)cc(O)cc2oc1=O

>  <growth inhibition (%)>
20.7

$$$$
>  <compound>
Cc1ccc2c(c1)C(=Nc1ccc(Cl)cc1)C(=O)N2

>  <growth inhibition (%)>
13.1

$$$$

INPUT: What measured growth inhibition goes with `CN(CCCCl)Cc1ccccc1` ?
OUTPUT: -7.55

INPUT: Now consider `CC(=O)CC(=O)Nc1cccc(C)n1` .
OUTPUT: 7.25

INPUT: Now consider N#Cc1ccccc1NC(=O)C(=O)C(C(=O)c1ccccc1F)C1OC(=O)c2ccccc21 (stereo unspecified) and answer again.
OUTPUT: -2.4

INPUT: Could you do the same for `O=C(O)CS(=O)(=O)Cc1ccccc1` , please?
OUTPUT: -6.5

INPUT: Continue with `C/C(=N\N=C(\Cc1ccccc1)c1ccccc1)c1ccccc1`
OUTPUT: 2.8

INPUT: Same thing, different compound: CCOC(=O)C[N+]1(C)CCC(O)CC1 (stereo unspecified)
OUTPUT: 7.55

INPUT: Repeat for the following compound: `Nc1nc(N)nc(-c2ccc([N+](=O)[O-])o2)n1`
OUTPUT: 41.6

INPUT: And then `COC(Cc1cc(C(O)(c2ccc(C(C)(C)C)cc2)c2cc(CC(OC)(c3cc(C(OC)(c4ccc(C(C)(C)C)cc4)c4ccc(C(C)(C)C)cc4)c(C)cc3C)c3cc(C(OC)(c4ccc(C(C)(C)C)cc4)c4ccc(C(C)(C)C)cc4)c(C)cc3C)c(C)cc2C)c(C)cc1C)(c1cc(C(OC)(c2ccc(C(C)(C)C)cc2)c2ccc(C(C)(C)C)cc2)c(C)cc1C)c1cc(C(OC)(c2ccc(C(C)(C)C)cc2)c2ccc(C(C)(C)C)cc2)c(C)cc1C` , what is it?
OUTPUT: 23.6

INPUT: Another compound: COc1ccc2c(c1)C13CCCC(C)(C(=O)NC1)C3CC2 (stereo unspecified)
OUTPUT: -11.7

INPUT: Consider next the compound `O=C(O)C/C=C/CC(=O)O` in the same way.
OUTPUT: -3.15

INPUT: Please give the result for `C1CCC(N=C2N(C3CCCCC3)C(=NC3CCCCC3)N2C2CCCCC2)CC1` too.
OUTPUT: -4.35

###

test.summary: NCI Yeast Anticancer Drug Screen. Data for the mlh1 rad18 strain (AID 175)
run.parameters: S. cerevisiae mlh1 rad18 strain growth inhibition; at 50.0 µM; active compounds read high
The panel holds about 79,000 compounds, 15% with a hit somewhere; the sample as a whole holds those more often.
Measured growth inhibition of individual entries
Write the number in % without appending the unit.

Record excerpt, results attached:
>  <compound>
CCCc1nc2ccccc2c(=O)n1/N=C/c1ccc(Cl)cc1Cl

>  <numeric.readout>
-3.4

$$$$
>  <compound>
CCOCc1cc(Cc2cc(COCC)c3cccnc3c2O)c(O)c2ncccc12

>  <numeric.readout>
16.2

$$$$
>  <compound>
N#Cc1cn(Cc2ccccc2)c2ccccc2c1=O

>  <numeric.readout>
1.15

$$$$

INPUT: Suppose we examine the compound `CCOC(=O)c1ccc(N=Nc2c(N)nc(N)nc2N)cc1` ; what growth inhibition value has been reported?
OUTPUT: -11

INPUT: What about this compound? `Cc1ccc(S(=O)(=O)/C(C#N)=C/n2c(=S)[nH]c3ccc([N+](=O)[O-])cc32)cc1`
OUTPUT: 3.3

INPUT: Similarly, CN(CC(O)CN1CCCc2ccccc21)C1CCCCC1 (configuration not stated) ?
OUTPUT: 19.2

INPUT: Consider next the compound `O=C1/C(=C/c2ccccc2)CN(C(=O)OCC(Cl)(Cl)Cl)C/C1=C\c1ccccc1` in the same way.
OUTPUT: -57.7

INPUT: For `COc1cc(C(=O)NC(=S)Nc2csc(-c3ccc(F)cc3)n2)cc(OC)c1OC` then?
OUTPUT: 11.7

INPUT: Another: `CC(=O)Oc1ccc(I)cc1C(=O)O`
OUTPUT: -11.8

INPUT: Could you do the same for `CN(CCC(=O)O)S(=O)(=O)c1ccccc1` , please?
OUTPUT: -3.8

INPUT: Again, but for CC(=O)C(c1ccccc1)S(=O)(=O)c1ccc(C)cc1 (configuration not stated)
OUTPUT: -1.5

INPUT: Please answer likewise for `NC(N)=NC(N)=Nc1ccccc1Br`
OUTPUT: -3.85
